Give normalized RNA/DNA level without ligand (log10) for every item shown.
B1: library; a variant is named by its letters at N, in order (parent)
chain: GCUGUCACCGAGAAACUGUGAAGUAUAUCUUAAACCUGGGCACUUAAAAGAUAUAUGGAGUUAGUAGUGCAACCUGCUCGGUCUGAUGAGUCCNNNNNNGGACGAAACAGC

- Variants of: B1
- experimentDescription: normalized RNA/DNA level without ligand (relative to sTRSVctl = 100) (log10 (% of sTRSVctl)); HEK293T; ligand: cyclic di-GMP (c-di-GMP-II aptamer); higher = less ribozyme self-cleavage, higher mRNA level
- conditionNotes: reporter: mCherry (pCS4076), ligand present: no
One number for each entry.

Recorded normalized RNA/DNA level without ligand (log10), per entry:
GCUGUCACCGAGAAACUGUGAAGUAUAUCUUAAACCUGGGCACUUAAAAGAUAUAUGGAGUUAGUAGUGCAACCUGCUCGGUCUGAUGAGUCCAGGCCAGGACGAAACAGC 1.72
GCUGUCACCGAGAAACUGUGAAGUAUAUCUUAAACCUGGGCACUUAAAAGAUAUAUGGAGUUAGUAGUGCAACCUGCUCGGUCUGAUGAGUCCUUGGGAGGACGAAACAGC 1.57
GCUGUCACCGAGAAACUGUGAAGUAUAUCUUAAACCUGGGCACUUAAAAGAUAUAUGGAGUUAGUAGUGCAACCUGCUCGGUCUGAUGAGUCCCAUGCGGGACGAAACAGC 1.81

# map each variant to its normalized RNA/DNA level without ligand (log10)
1. GCUGUCACCGAGAAACUGUGAAGUAUAUCUUAAACCUGGGCACUUAAAAGAUAUAUGGAGUUAGUAGUGCAACCUGCUCGGUCUGAUGAGUCCUAUCUCGGACGAAACAGC
2. GCUGUCACCGAGAAACUGUGAAGUAUAUCUUAAACCUGGGCACUUAAAAGAUAUAUGGAGUUAGUAGUGCAACCUGCUCGGUCUGAUGAGUCCUGAACAGGACGAAACAGC
3. GCUGUCACCGAGAAACUGUGAAGUAUAUCUUAAACCUGGGCACUUAAAAGAUAUAUGGAGUUAGUAGUGCAACCUGCUCGGUCUGAUGAGUCCACGGUAGGACGAAACAGC
4. GCUGUCACCGAGAAACUGUGAAGUAUAUCUUAAACCUGGGCACUUAAAAGAUAUAUGGAGUUAGUAGUGCAACCUGCUCGGUCUGAUGAGUCCUUUGGUGGACGAAACAGC
5. GCUGUCACCGAGAAACUGUGAAGUAUAUCUUAAACCUGGGCACUUAAAAGAUAUAUGGAGUUAGUAGUGCAACCUGCUCGGUCUGAUGAGUCCAUAACGGGACGAAACAGC
6. GCUGUCACCGAGAAACUGUGAAGUAUAUCUUAAACCUGGGCACUUAAAAGAUAUAUGGAGUUAGUAGUGCAACCUGCUCGGUCUGAUGAGUCCUAGGCGGGACGAAACAGC

1: 1.81; 2: 1.75; 3: 1.37; 4: 1.73; 5: 1.58; 6: 1.77

# map each variant to its normalized RNA/DNA level without ligand (log10)
1. GCUGUCACCGAGAAACUGUGAAGUAUAUCUUAAACCUGGGCACUUAAAAGAUAUAUGGAGUUAGUAGUGCAACCUGCUCGGUCUGAUGAGUCCAGCGUCGGACGAAACAGC
2. GCUGUCACCGAGAAACUGUGAAGUAUAUCUUAAACCUGGGCACUUAAAAGAUAUAUGGAGUUAGUAGUGCAACCUGCUCGGUCUGAUGAGUCCUGGGUAGGACGAAACAGC

1: 1.78; 2: 1.61
